# key: entry, value: koff
target: SARS-CoV-2 RdRp (Severe acute respiratory syndrome coronavirus 2, UniProt P0DTD1); assay: biochemical; assay type: binding; settings: read-out: kdis
Remember to follow the number with its unit.

Known koff results, listed for orientation:
molecule="CC1(C)CC[C@]2(C(=O)O)CC[C@]3(C)C(=CC[C@@H]4[C@@]5(C)CCC(=O)C(C)(C)[C@@H]5CC[C@]43C)[C@@H]2C1 [RAI-S-35, Oleanonic Acid]" measured_target="SARS-CoV-2 RdRp (Severe acute respiratory syndrome coronavirus 2, UniProt P0DTD1)" readout_value="0.0168 s⁻¹"
molecule="O=C(O[C@@H]1O[C@@H]2COC(=O)c3cc(O)c(O)c(O)c3-c3c(cc(O)c(O)c3O)C(=O)O[C@H]([C@H]1O)[C@@H]2O)c1cc(O)c(O)c(O)c1 [RAI-S-37, Corilagin]" measured_target="SARS-CoV-2 RdRp (Severe acute respiratory syndrome coronavirus 2, UniProt P0DTD1)" readout_value="0.000268 s⁻¹"
molecule="COc1cc(C(=O)NS(=O)(=O)c2ccccc2C)ccc1Cc1cn(C)c2ccc(NC(=O)OC3CCCC3)cc12 [RAI-S-19, Zafirlukast]" measured_target="SARS-CoV-2 RdRp (Severe acute respiratory syndrome coronavirus 2, UniProt P0DTD1)" readout_value="4.99 s⁻¹"

# query: koff | item C[C@@H]1O[C@@H](O[C@@H]2[C@@H](O)[C@H](OCCc3ccc(O)c(O)c3)O[C@H](CO)[C@H]2OC(=O)/C=C/c2ccc(O)c(O)c2)[C@H](O)[C@H](O)[C@H]1O [RAI-S-11, Verbascoside] | system: SARS-CoV-2 RdRp (Severe acute respiratory syndrome coronavirus 2, UniProt P0DTD1)
9.05e-05 s⁻¹

###

# key: entry, value: Kd
molecular target: UniProt P0DTD1; assay: biochemical; assay type: binding; details: KD, BLI, 1:1 binding model, compounds 3.125–100 μmol/L
Report as a plain number; the unit µM is understood.

Known Kd results, listed for orientation:
compound=O=C(O[C@@H]1O[C@@H]2COC(=O)c3cc(O)c(O)c(O)c3-c3c(cc(O)c(O)c3O)C(=O)O[C@H]([C@H]1O)[C@@H]2O)c1cc(O)c(O)c(O)c1 outcome_measure=Kd readout_value=0.54
compound=CC1(C)CC[C@]2(C(=O)O)CC[C@]3(C)C(=CC[C@@H]4[C@@]5(C)CCC(=O)C(C)(C)[C@@H]5CC[C@]43C)[C@@H]2C1 outcome_measure=Kd readout_value=171

--- query ---
Which value of Kd has been reported for C[C@@H]1O[C@@H](O[C@@H]2[C@@H](O)[C@H](OCCc3ccc(O)c(O)c3)O[C@H](CO)[C@H]2OC(=O)/C=C/c2ccc(O)c(O)c2)[C@H](O)[C@H](O)[C@H]1O [RAI-S-11, Verbascoside] in the records?
0.84

###

biological target: SARS-CoV-2 RdRp (Severe acute respiratory syndrome coronavirus 2, UniProt P0DTD1); assay: biochemical; format: binding
outcome measure: Kd (µM)
Report as a plain number; the unit µM is understood.

compound="O=C(O)CCc1cc(C(=O)c2ccc(OC3CCCC3)cc2O)ccc1OCc1ccc2c(=O)[nH]oc2c1 [RAI-S-47, T-5224]" outcome_measure=Kd quantity_unit=µM readout_value=38.7

--- query ---
Which value of Kd has been reported for Cc1ccc(Oc2nc3cc(-c4ccc(-c5ccccc5)cc4)c(Cl)cc3[nH]2)cc1C(=O)O [RAI-S-45, MK-3903] in the records?
220

###

target: SARS-CoV-2 RdRp (Severe acute respiratory syndrome coronavirus 2); test: biochemical; format: binding
# key: entry, value: kon
Report as a plain number; the unit M⁻¹ s⁻¹ is understood.

compound=CC1(C)CC[C@]2(C(=O)O)CC[C@]3(C)C(=CC[C@@H]4[C@@]5(C)CCC(=O)C(C)(C)[C@@H]5CC[C@]43C)[C@@H]2C1 readout_value=98.4
compound=O=C(O[C@@H]1O[C@@H]2COC(=O)c3cc(O)c(O)c(O)c3-c3c(cc(O)c(O)c3O)C(=O)O[C@H]([C@H]1O)[C@@H]2O)c1cc(O)c(O)c(O)c1 readout_value=496
compound=O=C(O)CCc1cc(C(=O)c2ccc(OC3CCCC3)cc2O)ccc1OCc1ccc2c(=O)[nH]oc2c1 readout_value=200
compound=O=C(Nc1nc(-c2ccc(O)c(O)c2)c(-c2ccccc2)s1)c1ccc(O)c(O)c1 readout_value=8.10
compound="C[C@@H]1O[C@@H](O[C@@H]2[C@@H](O)[C@H](OCCc3ccc(O)c(O)c3)O[C@H](CO)[C@H]2OC(=O)/C=C/c2ccc(O)c(O)c2)[C@H](O)[C@H](O)[C@H]1O [RAI-S-11, Verbascoside]" readout_value=108

Which value of kon has been reported for COc1cc(C(=O)NS(=O)(=O)c2ccccc2C)ccc1Cc1cn(C)c2ccc(NC(=O)OC3CCCC3)cc12 in the records?
8.43

Which value of kon has been reported for Cc1ccc(Oc2nc3cc(-c4ccc(-c5ccccc5)cc4)c(Cl)cc3[nH]2)cc1C(=O)O in the records?
302
